- test_method_notes: Therapeutic index, ratio of IC50 for C57B1/6J mice (Mus musculus) splenic lymphocyte to IC50 for chloroquine-sensitive Plasmodium falciparum D6
- run_conditions: read-out: TI

>  <compound_string>
O=C(CNCCNc1ccnc2cc(Cl)ccc12)N(c1ccccc1)c1ccccc1

>  <selectivity ratio>
12000

$$$$

---

- test_method_notes: Therapeutic index, ratio of IC50 for C57B1/6J mice (Mus musculus) splenic lymphocyte to IC50 for chloroquine-resistant Plasmodium falciparum Dd2
- run_conditions: read-out: TI

>  <compound_string>
O=C(CNCCNc1ccnc2cc(Cl)ccc12)N(c1ccccc1)c1ccccc1

>  <selectivity ratio>
4800

$$$$
